biological target: Tyrosine-protein kinase BTK (Homo sapiens, UniProt Q06187); experiment: Inhibition of recombinant human N-terminal His-tagged BTK expressed in baculovirus infected in Sf9 cells incubated for 1 hr by TR-FRET assay
Sequence (Q06187 whole entry): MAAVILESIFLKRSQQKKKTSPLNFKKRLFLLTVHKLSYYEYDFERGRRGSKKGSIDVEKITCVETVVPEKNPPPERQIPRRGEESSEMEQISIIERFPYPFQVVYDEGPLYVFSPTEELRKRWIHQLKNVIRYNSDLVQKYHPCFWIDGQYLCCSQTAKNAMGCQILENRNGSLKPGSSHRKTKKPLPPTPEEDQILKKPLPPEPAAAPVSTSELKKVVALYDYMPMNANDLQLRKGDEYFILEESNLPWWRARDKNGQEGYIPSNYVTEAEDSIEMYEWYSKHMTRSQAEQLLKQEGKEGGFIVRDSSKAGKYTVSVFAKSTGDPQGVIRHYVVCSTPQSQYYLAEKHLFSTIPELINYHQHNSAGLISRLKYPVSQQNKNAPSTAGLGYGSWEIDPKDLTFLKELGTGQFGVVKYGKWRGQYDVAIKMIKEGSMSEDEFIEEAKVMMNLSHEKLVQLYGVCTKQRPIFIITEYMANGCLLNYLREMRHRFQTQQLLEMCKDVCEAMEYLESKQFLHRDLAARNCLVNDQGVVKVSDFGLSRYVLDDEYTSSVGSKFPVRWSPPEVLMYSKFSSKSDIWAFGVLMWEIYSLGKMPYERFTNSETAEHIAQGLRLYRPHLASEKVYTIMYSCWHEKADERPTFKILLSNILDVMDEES
Square brackets hold non-standard residues; d marks the D form. Peptide text beside a SMILES is read from it. * marks the point of attachment. Oic = O=C(O)[C@@H]1C[C@@H]2CCCC[C@@H]2N1; Phe(4-CN) = N#Cc1ccc(C[C@H](N)C(=O)O)cc1; Acryloyl = C=CC(=O)*
Entries whose IC50 is below 200 nM take 1; entries at or above 200 nM take 0.

- compound: "CNC(=O)[C@@H](Cc1ccc(C#N)cc1)NC(=O)[C@@H](NC(=O)[C@@H]1CO1)c1ccccc1"
  qualitative label: 1
- compound: "CNC(=O)[C@H]1Cc2c([nH]c3ccccc23)CN1C(=O)[C@@H](Cc1ccccc1)NC(=O)c1c[nH]c(C(N)=O)c1"
  qualitative label: 1
- compound: "CNC(=O)[C@@H](Cc1ccc(C#N)cc1)NC(=O)[C@@H](NC(=O)[C@]1(C)CO1)[C@@H](C)OC(C)(C)C"
  qualitative label: 1
- compound: "C=CC(=O)N1[C@H](C(=O)N[C@@H](Cc2ccc(C#N)cc2)C(=O)NC)C[C@@H]2CCCC[C@@H]21 (Acryloyl-[Oic]-[Phe(4-CN)]-NHMe)"
  qualitative label: 0
- compound: "C=CC(=O)N1CCC[C@H](CC(=O)N2Cc3[nH]c4ccccc4c3C[C@@H]2C(=O)NC)C1"
  qualitative label: 0
- compound: "CNC(=O)[C@H]1Cc2c([nH]c3ccccc23)CN1C(=O)C[C@@H](Cc1cccc(F)c1)NC(=O)C1CO1 (some centres not stated)"
  qualitative label: 0
- compound: "CNC(=O)[C@H]1Cc2c([nH]c3ccccc23)CN1C(=O)c1occc1CNc1ccc2nccnc2c1"
  qualitative label: 1

---

molecular target: Tyrosine-protein kinase BTK (Homo sapiens, UniProt Q06187); test: Inhibition of recombinant human N-terminal His-tagged BTK expressed in baculovirus infected in Sf9 cells assessed as ratio of inactivation constant to inhibitory constant incubated for 1 hr by TR-FRET assay
parameter measured: Ratio

- compound: "CNC(=O)[C@@H](Cc1ccc(C#N)cc1)NC(=O)[C@@H](NC(=O)[C@]1(C)CO1)[C@@H](C)OC(C)(C)C"
  experimental system: "Tyrosine-protein kinase BTK (Homo sapiens, UniProt Q06187)"
  result: "6580 s⁻¹ M⁻¹"
- compound: "C=CC(=O)N1CCC[C@H](CC(=O)N2Cc3[nH]c4ccccc4c3C[C@@H]2C(=O)NC)C1"
  experimental system: "Tyrosine-protein kinase BTK (Homo sapiens, UniProt Q06187)"
  result: "59.2 s⁻¹ M⁻¹"
- compound: "CNC(=O)[C@@H](Cc1ccc(C#N)cc1)NC(=O)[C@@H](NC(=O)[C@@H]1CO1)c1ccccc1"
  experimental system: "Tyrosine-protein kinase BTK (Homo sapiens, UniProt Q06187)"
  result: "4880 s⁻¹ M⁻¹"
- compound: "CNC(=O)[C@H]1Cc2c([nH]c3ccccc23)CN1C(=O)C[C@@H](Cc1cccc(F)c1)NC(=O)C1CO1 (some centres undefined)"
  experimental system: "Tyrosine-protein kinase BTK (Homo sapiens, UniProt Q06187)"
  result: "1660 s⁻¹ M⁻¹"

---

biological target: Tyrosine-protein kinase BTK (Homo sapiens, UniProt Q06187); test: Binding affinity to BTK (unknown origin) by mass spectrometry analysis relative to control; design: concentration or dose not given beside the values
Square brackets hold non-standard residues; d marks the D form. Peptide text beside a SMILES is read from it. * marks the point of attachment. Oic = O=C(O)[C@@H]1C[C@@H]2CCCC[C@@H]2N1; Phe(4-CN) = N#Cc1ccc(C[C@H](N)C(=O)O)cc1; Acryloyl = C=CC(=O)*
Listed here are compounds together with their documented Activity.
parameter measured: Activity (%)

- compound: "C=CC(=O)N1[C@H](C(=O)N[C@@H](Cc2ccc(C#N)cc2)C(=O)NC)C[C@@H]2CCCC[C@@H]21 (Acryloyl-[Oic]-[Phe(4-CN)]-NHMe)"
  experimental system: "Tyrosine-protein kinase BTK (Homo sapiens, UniProt Q06187)"
  value units: "%"
  result number: 94.4
- compound: "CNC(=O)[C@@H](Cc1ccc(C#N)cc1)NC(=O)[C@@H](NC(=O)[C@]1(C)CO1)[C@@H](C)OC(C)(C)C"
  experimental system: "Tyrosine-protein kinase BTK (Homo sapiens, UniProt Q06187)"
  value units: "%"
  result number: 92.3
- compound: "C=CC(=O)N1CCC[C@H](CC(=O)N2Cc3[nH]c4ccccc4c3C[C@@H]2C(=O)NC)C1"
  experimental system: "Tyrosine-protein kinase BTK (Homo sapiens, UniProt Q06187)"
  value units: "%"
  result number: 97.9
- compound: "CNC(=O)[C@H]1Cc2c([nH]c3ccccc23)CN1C(=O)c1occc1CNc1ccc2nccnc2c1"
  experimental system: "Tyrosine-protein kinase BTK (Homo sapiens, UniProt Q06187)"
  value units: "%"
  result number: 0
- compound: "CNC(=O)[C@@H](Cc1ccc(C#N)cc1)NC(=O)[C@@H](NC(=O)[C@@H]1CO1)c1ccccc1"
  experimental system: "Tyrosine-protein kinase BTK (Homo sapiens, UniProt Q06187)"
  value units: "%"
  result number: 95.2
